B1: EEHEE_rd4_0469 (parent)
chain: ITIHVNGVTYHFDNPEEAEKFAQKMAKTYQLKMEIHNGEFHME

variants of: B1; assay: folding stability dG (cDNA display proteolysis); higher = more stable; conditions: PBS, room temperature
Measured folding stability dG determines class: lower range = under 3 kJ/mol, middle range = from 3 kJ/mol up to 5 kJ/mol, upper range = 5 kJ/mol and over

# ALTERATION, CATEGORY
data = [
    ("T9L", "middle range"),
    ("E19N", "upper range"),
    ("I35K", "lower range"),
    ("F21C", "upper range"),
    ("V5A", "middle range"),
    ("F12Y", "lower range"),
    ("E19W", "upper range"),
    ("H41N", "lower range"),
    ("E43C", "upper range"),
    ("V5C", "upper range"),
    ("A26Y", "upper range"),
    ("M33E", "lower range"),
    ("K24S", "middle range"),
    ("H11K", "middle range"),
    ("A18L", "middle range"),
    ("D13C", "upper range"),
    ("N6P", "lower range"),
    ("A22D", "lower range"),
    ("F12N", "lower range"),
    ("G38Q", "lower range"),
]

From: the MegaScale stability set (Tsuboyama et al. 2023)
